Data provenance: patent US20080200535A1

# SUBJECT_OF_TEST: S1P1 receptor (Homo sapiens, UniProt P21453)
# Construct: membrane preparation
# Sequence (P21453 whole entry): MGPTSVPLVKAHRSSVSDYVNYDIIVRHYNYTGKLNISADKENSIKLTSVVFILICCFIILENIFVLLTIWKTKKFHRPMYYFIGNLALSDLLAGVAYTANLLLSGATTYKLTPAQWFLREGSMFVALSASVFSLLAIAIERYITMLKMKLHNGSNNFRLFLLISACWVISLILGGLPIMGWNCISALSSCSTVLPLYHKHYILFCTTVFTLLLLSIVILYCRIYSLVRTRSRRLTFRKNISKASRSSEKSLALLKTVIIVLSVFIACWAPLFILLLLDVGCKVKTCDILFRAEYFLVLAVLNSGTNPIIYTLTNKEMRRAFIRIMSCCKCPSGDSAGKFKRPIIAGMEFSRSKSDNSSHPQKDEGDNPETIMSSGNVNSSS
# PROCEDURE_TEXT: 35S-GTPγS binding assay using membrane preparation of CHO cell stably expressing S1P1 receptor
# SETUP_CONDITIONS: agonist activity
READOUT_NAME: EC50 (nM)

> print(dat)
                                   compound                           subject.of.test  readout.name  readout.units  result.number
1  CC(C)COc1ccc(-c2nc(-c3ccc(CNCCC(=O)O)cc3)no2)cc1C(F)(F)F.Cl [Example 46]  S1P1 receptor (Homo sapiens, UniProt P21453)          EC50             nM            0.5

I = O=C(O)C1CCC(NCc2ccc(OCc3cc(-c4ccccc4)c(C(F)(F)F)s3)cc2)CC1 (stereo not shown) [Example 9]
II = N#Cc1ccccc1-c1ccc(-c2nc(-c3ccc(CNCCC(=O)O)cc3)no2)c(F)c1 [Example 88]
III = Cc1cc(CNCCC(=O)O)ccc1-c1noc(-c2ccc(CC(C)C)cc2)n1 [Example 144]
## Task Output the entries ranked by EC50 from maximum down to minimum. // list labels; follow requested order
## Result I, II, III
(I: 161 nM, II: 10 nM, III: 0.27 nM)

---

# Tested on: peripheral lymphocytes
# PROCEDURE_TEXT: Evaluation of reduction in peripheral blood lymphocyte count
# Assay type: in vivo
# SETUP_CONDITIONS: 3 h; rat, oral; dose required to reduce the lymphocyte count by 50% in three hours from the administration
READOUT_NAME: ED50 (mg/kg)
# unit: mg/kg | format: bare number

Record excerpt, results attached:
> print(dat)
                                   molecule  result.number
1  CC(C)COc1ccc(-c2nc(-c3ccc(CNCCC(=O)O)cc3)no2)cc1C(F)(F)F.Cl [Example 46]            2.1
2  Cc1cc(CNC2CC(C(=O)O)C2)ccc1-c1noc(-c2ccc(-c3ccccc3C#N)c(C)c2)n1 (stereo not shown) [Example 147]           0.72
3  Cl.O=C(O)CCNCc1ccc(-c2noc(-c3ccc(-c4ccccc4)c(C(F)(F)F)c3)n2)cc1 [Example 94]          0.087

## Task Can you share its ED50? I mean this molecule: Cc1cc(CNCCC(=O)O)ccc1-c1noc(-c2ccc(-c3ccccc3C#N)c(C)c2)n1 [Example 145]
## Result 0.46

## Task Then this molecule: Cc1cc(-c2nc(-c3ccc(CNCCC(=O)O)cc3)no2)ccc1-c1ccoc1.Cl [Example 117]
## Result 0.88

## Task Then this molecule: Cl.N#Cc1ccccc1-c1ccc(-c2nc(-c3ccc(CNCCC(=O)O)cc3)no2)cc1C#N [Example 90]
## Result 4.1

## Task Then this molecule: Cc1cc(-c2nc(-c3ccc(CNCCC(=O)O)cc3)no2)ccc1-c1ccccc1.Cl [Example 54]
## Result 0.44

## Task Then this molecule: Cl.N#Cc1ccccc1-c1ccc(-c2nc(-c3ccc(CNCCC(=O)O)cc3)no2)cc1C(F)(F)F [Example 93]
## Result 0.64

## Task Then this molecule: Cc1cc(-c2nc(-c3ccc(CNCCC(=O)O)cc3)no2)ccc1-c1ccccc1C#N.Cl [Example 78]
## Result 0.37

## Task Then this molecule: Cl.N#Cc1ccccc1-c1ccc(-c2nc(-c3ccc(CNCCC(=O)O)cc3)no2)cc1OC(F)(F)F [Example 106]
## Result 0.5
